- Test system: DMS-114 complex spheroids with HUVEC/MSC, growth % test/control
- assay_explanation: Anticancer human tumor DMS-114 cell line growth inhibition [AhR];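 note: spheroids exposed to agents for 7 days before readout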
- condition: second compound 10 µM; first compound 0.0949 µM; stronger effect = lower value
Entries whose viability, T/C is below 50% take met; entries at or above 50% take not met.

compound | label
CCN(c1cc(-c2ccc(CN3CCOCC3)cc2)cc(C(=O)NCc2c(C)cc(C)[nH]c2=O)c1C)C1CCOCC1 + CC(CO)NC(=O)c1cc(-c2ccc(Cl)cc2)nn(-c2cnn(C)c2)c1=O | not met
O=C(C=Cn1cnc(-c2cc(C(F)(F)F)cc(C(F)(F)F)c2)n1)NNc1cnccn1 + Cc1ccccc1N=Nc1ccc(NC(=O)c2ccnn2C)c(C)c1 | not met
CC(C)CC(NC(=O)C(Cc1ccccc1)NC(=O)c1cnccn1)B(O)O (stereo unspecified) + CC(CO)NC(=O)c1cc(-c2ccc(Cl)cc2)nn(-c2cnn(C)c2)c1=O | met
CCN(c1cc(-c2ccc(CN3CCOCC3)cc2)cc(C(=O)NCc2c(C)cc(C)[nH]c2=O)c1C)C1CCOCC1 + Cc1cncc(-c2nc(NCCc3c[nH]c4ccccc34)c3ncn(C(C)C)c3n2)c1 | not met
CC(C)CC(NC(=O)C(Cc1ccccc1)NC(=O)c1cnccn1)B(O)O (stereo unspecified) + Cc1cncc(-c2nc(NCCc3c[nH]c4ccccc34)c3ncn(C(C)C)c3n2)c1 | met

Could you now look at the following compound, please?
Task item: Take the compound Nc1ncn(C2CC(O)C(CO)S2)c(=O)n1 (stereo unspecified) + CC(CO)NC(=O)c1cc(-c2ccc(Cl)cc2)nn(-c2cnn(C)c2)c1=O and say whether its viability, T/C is less than 50%.
Reply: not met
